B1: SAM and SH3 domain-containing protein 1, residues 630 to 700; numbered along this chain, O94885 (parent)
chain: GRPPQPKSVEDLLDRINLKEHMPTFLFNGYEDLDTFKLLEEEDLDELNIRDPEHRAVLLTAVELLQEYDSN

variants of: B1; assay: abundance fitness (aPCA) (normalised: wild type 0, dead -1); higher = more abundant; growth selection in yeast, the domain comes from the species named; conditions: Homo sapiens
OUTCOME MEASURE: abundance fitness

Reference set, count: 2
>  <VARIANT DESCRIPTION>
D32L

>  <OUTCOME MEASURE>
abundance fitness

>  <ASSAY VALUE>
-0.767

$$$$
>  <VARIANT DESCRIPTION>
L26V

>  <OUTCOME MEASURE>
abundance fitness

>  <ASSAY VALUE>
0.034

$$$$

// next item, abundance fitness requested
Prompt: Write down abundance fitness measured for item L13S
Completion: -0.887
